- Test system: SF-268
- ASSAY_PROTOCOL: NCI tumour cell line growth inhibition, 48 h
Calls of active or inactive are those of the source. Cut-off read from the data, not from the text of the source: active = GI50 up to about 1.1 µM and inactive = higher.
PROPERTY: GI50

Look up GI50 for this molecule: CCC1CN2CCC3(c4ccccc4)CC(C(=O)OC)=CC1C23 (stereo not given)
14.3 µM (inactive)

Look up GI50 for this molecule: CN=[S+]([O-])(c1ccccc1)c1ccccc1
> 100 µM (inactive)

Look up GI50 for this molecule: CC1=NN(C(=O)Cc2ccccc2)C(=O)/C1=C\c1ccco1
> 100 µM (inactive)

Look up GI50 for this molecule: CC(C)[C@@H](C)CC[C@@H](C)C1CC=C2[C@@H]3CCC4C[C@@H](O[Si](C)(C)C(C)(C)C)CC[C@]4(C)C3CC[C@@]21C (stereo not given in full)
> 100 µM (inactive)

Look up GI50 for this molecule: CCOC(=O)C(CC(C)C)NC(=O)C(Cc1ccc(N(CCCl)CCCl)cc1)NC(C)=O (stereo not given)
4.07 µM (inactive)

Look up GI50 for this molecule: O=C(CC(c1ccccc1)c1c(O)c2ccccc2oc1=O)c1ccccc1 (stereo not given)
> 100 µM (inactive)

Look up GI50 for this molecule: CC(C)(/C=N\O)NO
> 10 µM (inactive)

Look up GI50 for this molecule: CCCCOC(=O)C(=O)C(CC(C(=O)Cc1ccccc1)c1ccccc1)C(=O)C=C(C)C (stereo not given)
> 100 µM (inactive)

Look up GI50 for this molecule: COC(=O)c1c(O)ccc2c1c1c(n2Cc2ccccc2Cl)C(=O)c2ccccc2C1=O
12.4 µM (inactive)

Look up GI50 for this molecule: COc1ccc(NC(=O)C(=O)C(CC2C(=O)NC(=S)NC2=O)C(=O)c2ccc3ccccc3c2)c([N+](=O)[O-])c1 (stereo not given)
> 100 µM (inactive)

Data origin: ChEMBL document CHEMBL1201862
